# credit: PubChem BioAssay AID328

Test system: BDF1 mice, P388 leukemia ip, median survival T/C
Assay: NCI In Vivo Anticancer Drug Screen. Data for tumor model P388 Leukemia (intraperitoneal) in B6D2F1 (BDF1) mice
Details: endpoint: median survival time; dose: 50.0 mg/kg/injection; schedule: Q01DX009 (ip); vehicle: other; higher = longer survival
Inconclusive results and toxic doses are left out.
MEASUREMENT_NAME: T/C

In the examples that follow, each entry is paired with its recorded T/C.
1. CC1=C(C(=O)OCc2ccccc2)C(c2ccc(Cl)cc2)C(C(=O)OCc2ccccc2)=C(C)N1: 90 % of control
2. Cc1ccc(S(=O)(=O)N/N=C/C(O)CO)cc1 (stereo unspecified): 96 % of control
3. COc1cccc(C(=O)O)c1OS(=O)(=O)c1ccc(C)cc1: 100 % of control
4. ClC1C(Cl)C2CC1C1OC21 (stereo unspecified): 101 % of control
5. O=C(CC/[N+]([O-])=C/c1ccccc1)OCc1ccccc1: 103 % of control

Kindly consider the entry below.
// CN(C)C(=O)c1ccc(C(C)(C)C)cc1 : T/C value = 113 % of control

* * *

Tested on: BDF1 mice, P388 leukemia ip, median survival T/C
Assay: NCI In Vivo Anticancer Drug Screen. Data for tumor model P388 Leukemia (intraperitoneal) in B6D2F1 (BDF1) mice
Conditions: endpoint: median survival time; dose: 100.0 mg/kg/injection; schedule: Q04DX003 (ip); vehicle: Klucel (hydroxypropylcellulose) (HPC); higher = longer survival
Description: The antitumor activity of compounds was measured in mice bearing transplantable tumors. Survival or tumor size were measured and the results are expressed as the measurement made in the treated group (T) divided by the measurement made in the vehicle treated control group (C). The tumor model used in this assay is P388 Leukemia (intraperitoneal) in B6D2F1 (BDF1) mice
Inconclusive results and toxic doses are left out.
MEASUREMENT_NAME: T/C

1) Nc1ccccc1SC1CC(=O)N(c2cccc3ccccc23)C1=O (stereo unspecified): 104 % of control
2) COC(=O)C(c1ccccc1)C(Br)C(=O)c1ccccc1 (stereo unspecified): 100 % of control
3) O=c1ccccn1C/C(=N\O)c1ccccc1: 100 % of control
4) CCCCN1C(=O)C/C(=C2\CC(=O)N(CCCC)C2=O)C1=O: 116 % of control
5) C(=C\c1cccnc1)/c1ccncc1: 100 % of control

// O=C(Nc1ccc(Nc2ccncc2)cc1)c1ccc(Nc2ccnc3ccc([N+](=O)[O-])cc23)cc1 : T/C value = 100 % of control

* * *

Could you please report measured T/C for the items listed next?
Tested on: BDF1 mice, P388 leukemia ip, median survival T/C
Assay: NCI In Vivo Anticancer Drug Screen. Data for tumor model P388 Leukemia (intraperitoneal) in B6D2F1 (BDF1) mice
Conditions: endpoint: median survival time; dose: 100.0 mg/kg/injection; schedule: Q01DX001 (ip); vehicle: saline; higher = longer survival
Toxic doses and inconclusive results are not listed.

In the examples that follow, each entry is paired with its recorded T/C.
1. CC(=O)NC(=O)NC(C)=O: 91 % of control
2. CCOC(=O)C(Br)C(Br)c1ccccc1 (configuration not stated): 90 % of control
3. N#C/C(=C\c1ccc(O)cc1)c1ccc([N+](=O)[O-])cc1: 96 % of control

Dear reader, for each entry below, please note its T/C.
1. OCCNCCNCCO
2. NC1CCC1N (configuration not stated)

1. 104 % of control
2. 105 % of control

Dear reader, for each entry below, please note its T/C.
1. COc1ccc(C2c3cc4c(c(OC)c3CC3OCC(=O)C32)OCO4)cc1OC (configuration not stated)
2. OC1CC2C3C4C1C1C2C3C41 (configuration not stated)

1: 109 % of control; 2: 95 % of control
